# key: entry, value: koff
molecular target: T1, human IL-6 (human, UniProt P05231 30-212); assay: SPR Biacore, supernatant Ab on Protein A chip, 37 C
T1 construct: IL-6 flowed over captured antibodies
T1 sequence (P05231 30-212 limits assumed): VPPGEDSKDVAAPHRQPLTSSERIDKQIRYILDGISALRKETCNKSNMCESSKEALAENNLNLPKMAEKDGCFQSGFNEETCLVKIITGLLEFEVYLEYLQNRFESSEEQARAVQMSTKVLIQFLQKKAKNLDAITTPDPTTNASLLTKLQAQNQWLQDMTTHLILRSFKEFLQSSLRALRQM
Express the reported value numerically, then name its unit.

[
  {
    "binder": "anti-IL-6 antibody, heavy chain T63V, G66D / light chain M32L, M50D, N52S, M88Q (antibody, IgG1, V domains shown, Full IgG1 (Expi293); VL = variant III) VH: EVQLVESGGGLVQPGGSLRLSCAASGFTFSPFAMSWVRQAPGKGLEWVAKISPGGSWTYYSDVVTDRFTFSLDTSKSTAYLQMNSLRAEDTAVYYCARQLWGYYALDIWGQGTLVTVSS VL: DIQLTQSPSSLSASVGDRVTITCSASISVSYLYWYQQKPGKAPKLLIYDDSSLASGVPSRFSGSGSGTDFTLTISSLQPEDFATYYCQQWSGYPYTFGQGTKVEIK",
    "koff": "0.00043 s⁻¹"
  }
]

Complete the entry with koff for anti-IL-6 antibody, heavy chain S35I, G66D / light chain M32L, M50D, N52S, M88Q (antibody, IgG1, V domains shown, Full IgG1 (Expi293); VL = variant III) VH: EVQLVESGGGLVQPGGSLRLSCAASGFTFSPFAMIWVRQAPGKGLEWVAKISPGGSWTYYSDTVTDRFTFSLDTSKSTAYLQMNSLRAEDTAVYYCARQLWGYYALDIWGQGTLVTVSS VL: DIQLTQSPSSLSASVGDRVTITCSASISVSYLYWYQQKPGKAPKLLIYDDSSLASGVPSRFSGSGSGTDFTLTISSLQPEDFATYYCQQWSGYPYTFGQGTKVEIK 0.00147 s⁻¹

Complete the entry with koff for anti-IL-6 antibody, heavy chain I51Q, G66D / light chain M32L, M50D, N52S, M88Q (antibody, IgG1, V domains shown, Full IgG1 (Expi293); VL = variant III) VH: EVQLVESGGGLVQPGGSLRLSCAASGFTFSPFAMSWVRQAPGKGLEWVAKQSPGGSWTYYSDTVTDRFTFSLDTSKSTAYLQMNSLRAEDTAVYYCARQLWGYYALDIWGQGTLVTVSS VL: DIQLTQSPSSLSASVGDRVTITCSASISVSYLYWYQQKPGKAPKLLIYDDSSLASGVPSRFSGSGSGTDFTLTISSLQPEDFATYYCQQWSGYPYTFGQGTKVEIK 0.00113 s⁻¹

Complete the entry with koff for anti-IL-6 antibody, heavy chain T63F, G66D / light chain M32L, M50D, N52S, M88Q (antibody, IgG1, V domains shown, Full IgG1 (Expi293); VL = variant III) VH: EVQLVESGGGLVQPGGSLRLSCAASGFTFSPFAMSWVRQAPGKGLEWVAKISPGGSWTYYSDFVTDRFTFSLDTSKSTAYLQMNSLRAEDTAVYYCARQLWGYYALDIWGQGTLVTVSS VL: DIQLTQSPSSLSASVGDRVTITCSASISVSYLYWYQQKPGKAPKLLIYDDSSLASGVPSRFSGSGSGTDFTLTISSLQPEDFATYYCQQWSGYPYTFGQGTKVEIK 0.000459 s⁻¹

Complete the entry with koff for anti-IL-6 antibody, heavy chain S35L, G66D / light chain M32L, M50D, N52S, M88Q (antibody, IgG1, V domains shown, Full IgG1 (Expi293); VL = variant III) VH: EVQLVESGGGLVQPGGSLRLSCAASGFTFSPFAMLWVRQAPGKGLEWVAKISPGGSWTYYSDTVTDRFTFSLDTSKSTAYLQMNSLRAEDTAVYYCARQLWGYYALDIWGQGTLVTVSS VL: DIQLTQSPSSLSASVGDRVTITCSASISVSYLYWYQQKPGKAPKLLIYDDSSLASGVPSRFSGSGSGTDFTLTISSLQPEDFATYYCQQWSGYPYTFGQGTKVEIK 0.00243 s⁻¹

Complete the entry with koff for anti-IL-6 antibody, heavy chain T63W, G66D / light chain M32L, M50D, N52S, M88Q (antibody, IgG1, V domains shown, Full IgG1 (Expi293); VL = variant III) VH: EVQLVESGGGLVQPGGSLRLSCAASGFTFSPFAMSWVRQAPGKGLEWVAKISPGGSWTYYSDWVTDRFTFSLDTSKSTAYLQMNSLRAEDTAVYYCARQLWGYYALDIWGQGTLVTVSS VL: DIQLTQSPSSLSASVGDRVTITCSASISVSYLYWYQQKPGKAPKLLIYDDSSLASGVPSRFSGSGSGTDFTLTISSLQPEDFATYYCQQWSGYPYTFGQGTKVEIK 0.000449 s⁻¹
